I'd appreciate it if you could supply protease stability score values for the items below.
- assay remarks: protease stability score; higher = more stable; yeast display proteolysis, trypsin and chymotrypsin;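 further: relative to predicted unfolded state with 0 unfolded-like and 1 meaning tenfold more protease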
API doc: respond with a numeric literal and nothing else, no unit.

Q. For the sequence `SEYEEEMRETLELTALYMRTGNEEDMKELMDPDAKIDVGDKHFHGREQVLHVIKHWRSKHIILREVDFQGEYIHSNGQVTTLINGRELDVESRWIILKVDGRWLVHSVLYL` , what protease stability score is on record?
A. 0.758

Q. Next sequence up: `TKEEDLMELALRIIERVNETGDEQELHDRLDPHTQIEIGDKNEHGWEHIVHVMRHIRIEQIRFRDRRVQGDKVHVFVESEIRVGEKQLHVKVDIYVWKFDGRWIMTRMRVE`
A. 1.33

Q. Next sequence up: `NEEEHELELAYRWYEESILTGDEDELTHLLDPHVRLQYGDKEFHGREIVLHFFHKHWREMGAKYIEVHSISLYGDKIVFDSTLHINGRTHRVHVTSRKVDGRWRIRSMRIN`
A. 1.63

Q. Next sequence up: `DEDEEMSERLSRIIVKALRTGNEHVLRRLVDPDVLSSIDGRKHHGWEDWHEFLKRLGHENVDVQLEHLRFQGNKIELDMILRVGDKTHTQHIHILKVDGRWTMHEVRIK`
A. 1.42

Q. Next sequence up: `SEDEHFLERFLKLFLHAYETGDEDFIKHLLDPHTRIDIHIGDKTHHLHGRDEMSKLHRKLGAKVSRHRDSNMDIQGDKATSHIHGVEYVNGREIRIDIVLIMRKVDGRWVIESMIFIFH`
A. 1.25

Q. Next sequence up: `EEEDREFEERWKEFEHAMRTGDEDSLEENLDPNVRFLFDGQEIVGRELTSKFIAEWLRSLGVEKVTIFMRRFHVIGDKVTVDGAFEVNGVHIRTIVYSKKVNGRWFNKSEEFR`
A. 0.733
